Hey, just so you know, these numbers are from patent US20090181986A1.

test system: L-type calcium channel; assay: L-type calcium channel activity well-plate assay (IMR-32 cells, Ca-4 dye, FlexStation); assay type: cell-based, human; conditions: 1 μM test cmpd
Provide the reported CaL Plate Assay % blk (1 μM test cmpd) of each item.
Give a bare numeral; the unit % is implied.

Prompt: API: value(readout= CaL Plate Assay % blk (1 μM test cmpd), system= L-type calcium channel, query= CCOC(=O)C1=C(C)Nc2nnnn2C1c1cccc2ccccc12 (stereo not drawn) [PT-192] )
Response: 9

Prompt: API: value(readout= CaL Plate Assay % blk (1 μM test cmpd), system= L-type calcium channel, query= CC1=C(C(=O)OCc2ccccc2)C(c2sc3ccccc3c2C)n2nnnc2N1 (stereo not drawn) [PT-044] )
Response: 7

Prompt: API: value(readout= CaL Plate Assay % blk (1 μM test cmpd), system= L-type calcium channel, query= CCOC(=O)C1=C(C)NC(C)=C(C(=O)OCC)C1c1cccs1 [PT-111] )
Response: 75

Prompt: API: value(readout= CaL Plate Assay % blk (1 μM test cmpd), system= L-type calcium channel, query= CCOC(=O)C1=C(C)NC(C)=C(C(=O)OCC)C1c1ccsc1 [PT-110] )
Response: 86

Prompt: API: value(readout= CaL Plate Assay % blk (1 μM test cmpd), system= L-type calcium channel, query= CCOC(=O)C1=C(C)Nc2nnnn2C1c1ccc2ccccc2c1 (stereo not drawn) [PT-008] )
Response: 0

Prompt: API: value(readout= CaL Plate Assay % blk (1 μM test cmpd), system= L-type calcium channel, query= CCCC1=C(C(=O)OCC)C(c2ccsc2)C2=C(CC(c3ccco3)CC2=O)N1 (stereo not drawn) [PT-150] )
Response: 4
